Some variants, each annotated with its measured protein stability index.
B1: IMPA1 (parent)
chain: FIGEESVAAGEKSILTDNPTWIID

Variants of: B1
assay_info: protein stability index of a GFP-peptide fusion (GPS, HEK-293T) (PSI 1-6); higher = more stable;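 also: lentivirally expressed fusions sorted by FACS into six bins by GFP to DsRed ratio, PSI derived from sequencing read proportions per bin multiplied by bin number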
conditions_used: c terminus: a fixed tail appended
No unit in the answer, only the number.

Check out these entries, answers already filled in.
variant_key=S13Y measured_number=2
variant_key=E11N measured_number=2.04

Shifting focus to the variant that follows.
**Q:** Item "E5R" has what recorded protein stability index?
**A:** 2
